Molecular target: UniProt:Q9Y5Y6
Sequence (Q9Y5Y6 whole entry): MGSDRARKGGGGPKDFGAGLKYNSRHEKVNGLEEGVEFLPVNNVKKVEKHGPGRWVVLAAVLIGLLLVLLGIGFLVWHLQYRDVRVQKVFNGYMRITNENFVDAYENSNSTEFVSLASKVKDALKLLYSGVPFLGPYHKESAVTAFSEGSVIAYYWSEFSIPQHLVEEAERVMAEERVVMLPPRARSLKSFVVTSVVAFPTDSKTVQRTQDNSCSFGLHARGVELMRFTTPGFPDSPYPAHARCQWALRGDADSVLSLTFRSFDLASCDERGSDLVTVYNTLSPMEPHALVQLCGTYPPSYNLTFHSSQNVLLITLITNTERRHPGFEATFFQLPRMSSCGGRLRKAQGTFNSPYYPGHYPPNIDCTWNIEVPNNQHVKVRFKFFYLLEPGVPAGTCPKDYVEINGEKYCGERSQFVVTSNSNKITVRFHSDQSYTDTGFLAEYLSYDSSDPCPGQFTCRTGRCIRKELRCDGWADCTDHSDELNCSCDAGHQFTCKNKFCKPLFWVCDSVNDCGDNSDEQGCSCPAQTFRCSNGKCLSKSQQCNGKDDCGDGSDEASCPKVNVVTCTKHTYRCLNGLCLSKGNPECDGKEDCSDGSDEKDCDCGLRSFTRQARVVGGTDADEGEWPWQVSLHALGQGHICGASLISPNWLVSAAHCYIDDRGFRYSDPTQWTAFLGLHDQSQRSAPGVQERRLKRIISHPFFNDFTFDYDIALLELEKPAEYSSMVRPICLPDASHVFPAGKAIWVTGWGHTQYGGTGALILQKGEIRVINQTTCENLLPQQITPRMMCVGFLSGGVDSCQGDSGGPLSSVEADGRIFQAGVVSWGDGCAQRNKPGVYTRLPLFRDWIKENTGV
Reported pKi on UniProt:Q9Y5Y6 for assorted compounds, compiled from publications.
The meaning of pKi here: minus log10 of the concentration in molar units.

Param item = `CC[C@H](C)[C@@H](NC(=O)[C@H](CCc1ccccc1)NC(=O)CCc1ccccc1)C(=O)N[C@@H](CCCNC(=N)N)C(=O)c1nc2ccccc2s1` ; retrieve measured pKi. 4.92

Param item = `N=C(N)NCCC(=O)N1CCN(C(=O)[C@H](Cc2cccc(C(=N)N)c2)NS(=O)(=O)c2ccc3ccccc3c2)CC1` ; retrieve measured pKi. 6.68

Param item = `COc1ccc(-c2cccc(S(=O)(=O)N[C@@H](Cc3cccc(C(=N)N)c3)C(=O)N3CCC(CCN)CC3)c2)c(OC)c1` ; retrieve measured pKi. 9.00

Continue with the next compound.
Param item = `N=C(N)c1cccc(C[C@H](NS(=O)(=O)c2cccc3ccccc23)C(=O)N2CCC(CCN=C(N)N)CC2)c1` ; retrieve measured pKi. 7.14
